test system: NCI/ADR-RES ovarian; experiment: NCI tumour cell line growth inhibition, 48 h
Measured TGI accompanies every entry in the list below.
Measured Property: TGI

1) COc1cc2c(cc1OC)C1C[C@]3(CCN1CC2)C(=O)N(c1ccccc1)C(=O)N3C(C)=O (stereo partly drawn)
> 200 µM
2) O=[N+]([O-])c1cccc2ccc(N/N=C/c3ccccc3O)nc12
> 100 µM
3) CCc1c(Cl)c(C)cc(O)c1Cl
> 100 µM
4) CCSC1=N/C(=C\c2ccc(N(C)C)cc2)C(Cl)=N1
> 100 µM
5) COc1ccc(N=NC(=O)NC(CC(C)C)C(=O)NC(C)C(=O)O)cc1 (stereo not drawn)
> 100 µM
6) CCOC(=O)/C=C(/C(=O)OCC)n1cnc2c(=O)[nH]c(NC(C)=O)nc21
> 100 µM
7) CC(C)OC(=O)[C@H](C)NP(=O)(OC[C@H]1O[C@@H](n2ccc(=O)[nH]c2=O)[C@](C)(F)[C@@H]1O)Oc1ccccc1 (stereo partly drawn)
> 100 µM
8) O=C(N(O)c1ccccc1Cl)C(O)(c1ccccc1)c1ccccc1
> 100 µM
9) C[C@H]1C(=O)O[C@@H]2CCN3CC=C(COC(=O)[C@](C)(O)[C@@]1(C)O)[C@H]23
> 100 µM
10) O=S(=O)(Nc1ccc(Cl)cc1Cl)c1ccc(-c2cnc(C3CC3)o2)cc1
17.5 µM
11) S=c1[nH]c2c(Cl)c(Cl)c(Cl)c(Cl)c2[nH]1
46.5 µM
12) CC(=O)NNc1nc(-c2ccc([N+](=O)[O-])cc2)c(C#N)c(=O)n1C
> 100 µM
13) COc1ccc(-c2nc3ncccn3c2-c2ccc(SC)cc2)cc1
5.24 µM

---

test system: BT-549 breast; assay: NCI tumour cell line growth inhibition, 48 h
Measured Property: TGI

1) CC1(C)OC[C@@H]([C@H](O)C2C=CC(=O)S2)O1 (stereo partly drawn)
47.5 µM
2) Nc1ccn([C@H]2CO[C@@H](CO)[C@@H]2O)c(=O)n1
> 100 µM
3) O=C(N(O)c1ccccc1Cl)C(O)(c1ccccc1)c1ccccc1
> 100 µM

---

test system: SF-295 CNS; assay: NCI tumour cell line growth inhibition, 48 h
Measured Property: TGI

1) CCOC1c2cc(C(C)C)c(O)c(O)c2[C@@]23CCCC(C)(C)C2C1OC3=O (some centres undefined)
> 100 µM
2) Nc1ccn([C@H]2CO[C@@H](CO)[C@@H]2O)c(=O)n1
> 100 µM
3) Oc1cn(-c2ccc(Cl)cc2)nc1-c1n[nH]c(=S)n1-c1ccccc1
19.8 µM
4) Clc1nc(Cl)nc(Nc2cccc3ccccc23)n1
> 100 µM

---

test system: SW-620 colon; assay: NCI tumour cell line growth inhibition, 48 h
Measured Property: GI50

1) CC1(C)N=C(N)N=C(N)N1c1ccc(CCCCc2ccc(Cl)c(S(=O)(=O)F)c2)c(Cl)c1
0.147 µM
2) O=[P@@]1(c2ccccc2)O[C@H](COCc2ccccc2)[C@@H](OCc2ccccc2)[C@H](OCc2ccccc2)[C@H]1NCc1ccccc1
3.52 µM
3) COc1cc(/C=C\c2cc(OC)c(OC)c(OC)c2)cc(N/C=C\C(=O)c2cc(OC)c(OC)c(OC)c2)c1OC
4.12 µM

---

test system: SF-539 CNS; experiment: NCI tumour cell line growth inhibition, 48 h
Measured Property: log10 TGI (log10 of the value in µM)

1. COc1ccc(C(O)(CCC(C)C)C(CN2CCOCC2)c2ccc(Cl)cc2)cc1 (stereo not given)
1.48
2. O=C1CCC/C=C\C[C@H]2C=CC(=O)/C2=C/C[C@H](C/C=C\CC(F)(F)F)O1
0.49
3. COc1cc2c3c(c1OC)-c1cc4c(cc1CC3(C#N)N(C(=O)c1ccccc1)CC2)OCO4 (stereo not given)
1.74
4. COC(=O)/C=C\C(C#N)(C#N)N=Cc1cc(Br)cs1
1.04
5. N#Cc1c(-c2ccc(Cl)cc2)c(C#N)c(=O)n(NS(=O)(=O)c2ccccc2)c1O
1.75
6. S=c1[nH]c2c(Cl)c(Cl)c(Cl)c(Cl)c2[nH]1
1.42
7. COC(=O)C1=C(C(=O)OC)C2=S(SC3=C2CCCC3)S1 (stereo not given)
1.87
8. Cc1ccc(Nc2oc(-c3ccccc3)nc2[P+](c2ccccc2)(c2ccccc2)c2ccccc2)cc1
0.48
9. C=C1CC/C=C(\C)CCC[C@H](C)[C@@H](O)[C@@H]2OC(=O)C(=C)[C@@H]2C[C@H]1O
0.84
10. C#Cc1nc(Nc2cc(C)[nH]n2)c2ccccc2n1
-0.35
11. CC(C)(C)[Si](C)(C)Oc1ccc(C2CNC(=O)C23CCC(=O)N3Cc2ccccc2)cc1 (stereo not given)
1.49
12. CC1CCN(C(=O)OCc2nc3nc(Cl)nc(N4CCOCC4)c3[nH]2)CC1
0.37
